The reported numbers originate from patent US8927717B1.

tested on: HS 578T; format: cell-based; settings: HS 578T; five dose
outcomeMeasure: TGI
Include the unit right after the number.

Ask: Find TGI (HS 578T) for the entry O=c1c2cc(Cl)ccc2sc2c(NCCCNCCO)nc3ccccc3c12
Reply: 3.53 µM

Ask: Find TGI (HS 578T) for the entry O=c1c2cc(Cl)ccc2sc2c(NCc3ccccc3)nc3ccccc3c12
Reply: 21.20 µM

Ask: Find TGI (HS 578T) for the entry CCNc1nc2ccccc2c2c(=O)c3cc(Cl)ccc3sc12
Reply: 65.5 µM

Ask: Find TGI (HS 578T) for the entry NCCNc1nc2ccccc2c2c(=O)c3cc(Cl)ccc3sc12
Reply: 3.90 µM

Ask: Find TGI (HS 578T) for the entry CN(C)CCNc1nc2ccccc2c2c(=O)c3cc(Cl)ccc3sc12
Reply: 4.02 µM

* * *

test system: OVCAR-4; format: cell-based; conditions: OVCAR-4; five dose
For each entry below, report its TGI value.

Ask: Return reported TGI; argument: NCCNc1nc2ccccc2c2c(=O)c3cc(Cl)ccc3sc12
Reply: 3.15 µM

Ask: Return reported TGI; argument: CN(C)CCNc1nc2ccccc2c2c(=O)c3cc(Cl)ccc3sc12
Reply: 2.75 µM

Ask: Return reported TGI; argument: O=c1c2cc(Cl)ccc2sc2c(NCc3ccccc3)nc3ccccc3c12
Reply: 3.74 µM

Ask: Return reported TGI; argument: CCNc1nc2ccccc2c2c(=O)c3cc(Cl)ccc3sc12
Reply: >100 µM

Ask: Return reported TGI; argument: O=c1c2cc(Cl)ccc2sc2c(NCCCNCCO)nc3ccccc3c12
Reply: 3.23 µM

* * *

target: UniProt:P11387
Sequence (P11387 whole entry): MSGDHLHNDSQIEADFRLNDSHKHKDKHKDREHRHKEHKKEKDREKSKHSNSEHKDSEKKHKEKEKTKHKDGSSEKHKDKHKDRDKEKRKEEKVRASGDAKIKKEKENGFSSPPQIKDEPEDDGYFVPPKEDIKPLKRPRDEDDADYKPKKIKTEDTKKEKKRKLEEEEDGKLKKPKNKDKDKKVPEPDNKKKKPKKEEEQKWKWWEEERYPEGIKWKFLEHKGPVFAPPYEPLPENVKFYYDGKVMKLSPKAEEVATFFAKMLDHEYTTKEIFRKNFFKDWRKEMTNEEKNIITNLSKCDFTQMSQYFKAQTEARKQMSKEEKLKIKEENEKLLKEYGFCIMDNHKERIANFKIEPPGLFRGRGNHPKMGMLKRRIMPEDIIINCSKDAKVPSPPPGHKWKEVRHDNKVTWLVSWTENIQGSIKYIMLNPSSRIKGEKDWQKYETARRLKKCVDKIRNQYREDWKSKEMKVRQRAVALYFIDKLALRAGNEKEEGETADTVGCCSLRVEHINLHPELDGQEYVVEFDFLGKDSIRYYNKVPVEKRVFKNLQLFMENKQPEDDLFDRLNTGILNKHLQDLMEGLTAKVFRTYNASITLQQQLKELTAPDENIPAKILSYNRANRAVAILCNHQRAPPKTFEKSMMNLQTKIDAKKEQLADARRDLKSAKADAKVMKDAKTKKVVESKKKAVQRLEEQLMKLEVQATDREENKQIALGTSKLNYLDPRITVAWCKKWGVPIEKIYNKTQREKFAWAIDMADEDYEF
pIC50: −log10 of the molar value.
outcomeMeasure: pIC50

Ask: Return reported pIC50; argument: NCCNc1nc2ccccc2c2c(=O)c3cc(Cl)ccc3sc12 [Compound N14]
Reply: ~6.00

Ask: Return reported pIC50; argument: CN(C)CCNc1nc2ccccc2c2c(=O)c3cc(Cl)ccc3sc12 [Compound N7]
Reply: ~5.00

Ask: Return reported pIC50; argument: O=c1c2cc(Cl)ccc2sc2c(NCCCNCCO)nc3ccccc3c12 [Compound N19]
Reply: ~5.30

Ask: Return reported pIC50; argument: O=c1c2cc(Cl)ccc2sc2c(NCCNCCO)nc3ccccc3c12 [Compound N15]
Reply: ~5.30

Ask: Return reported pIC50; argument: O=c1c2cc(Cl)ccc2sc2c(NCc3ccccc3)nc3ccccc3c12 [Compound N25]
Reply: ~4.60

Ask: Return reported pIC50; argument: CCN(CC)CCCNc1nc2ccccc2c2c(=O)c3cc(Cl)ccc3sc12 [Compound N18]
Reply: ~4.60

* * *

system: SK-MEL-5; type: cell-based; details: SK-MEL-5; five dose
outcomeMeasure: TGI

Ask: Find TGI (SK-MEL-5) for the entry CN(C)CCNc1nc2ccccc2c2c(=O)c3cc(Cl)ccc3sc12
Reply: 3.59 µM

Ask: Find TGI (SK-MEL-5) for the entry O=c1c2cc(Cl)ccc2sc2c(NCc3ccccc3)nc3ccccc3c12
Reply: >100 µM

Ask: Find TGI (SK-MEL-5) for the entry O=c1c2cc(Cl)ccc2sc2c(NCCCNCCO)nc3ccccc3c12
Reply: 3.00 µM

Ask: Find TGI (SK-MEL-5) for the entry CCNc1nc2ccccc2c2c(=O)c3cc(Cl)ccc3sc12
Reply: >100 µM

Ask: Find TGI (SK-MEL-5) for the entry NCCNc1nc2ccccc2c2c(=O)c3cc(Cl)ccc3sc12
Reply: 2.87 µM
